target: NA transporter (Rattus norvegicus); construct: from tissue; host or cells: rat hypothalamus synaptosomes (P2 fraction); test: Noradrenalin uptake inhibition in rat brain synaptosomes (hypothalamus); type: biochemical
Sequence (Q63380 1-617): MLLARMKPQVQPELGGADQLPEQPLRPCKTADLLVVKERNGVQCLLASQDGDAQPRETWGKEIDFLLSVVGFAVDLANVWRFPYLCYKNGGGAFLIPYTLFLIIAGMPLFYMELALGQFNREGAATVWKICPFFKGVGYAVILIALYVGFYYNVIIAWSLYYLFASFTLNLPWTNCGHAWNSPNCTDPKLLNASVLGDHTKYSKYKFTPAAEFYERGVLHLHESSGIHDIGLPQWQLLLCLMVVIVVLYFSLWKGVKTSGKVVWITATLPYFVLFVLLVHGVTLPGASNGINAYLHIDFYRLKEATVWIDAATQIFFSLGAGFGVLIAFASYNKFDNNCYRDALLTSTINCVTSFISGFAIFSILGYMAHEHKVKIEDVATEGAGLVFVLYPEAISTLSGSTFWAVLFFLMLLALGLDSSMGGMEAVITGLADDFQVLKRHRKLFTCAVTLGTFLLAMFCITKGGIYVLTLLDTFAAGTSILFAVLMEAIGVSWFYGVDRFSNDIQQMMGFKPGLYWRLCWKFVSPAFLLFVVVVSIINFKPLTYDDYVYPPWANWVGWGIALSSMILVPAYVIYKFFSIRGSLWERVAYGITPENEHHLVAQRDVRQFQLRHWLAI
PARAMETER: inhibition at 10 µM

> print(dat)
                                   compound  result
1  Cc1ccc(C(=O)Nc2ncc3c(n2)CCN(S(=O)(=O)c2cc(F)ccc2C)C3)cc1 [Example 107]     39%
2  O=C(Nc1ncc2c(n1)CCN(C(=O)c1sc3ccccc3c1Cl)C2)c1cccs1 [Example 110]     75%
3  CCOc1ccccc1C(=O)Nc1ncc2c(n1)CCN(S(=O)(=O)c1ccccc1C(=O)OC)C2 [Example 82]     32%
4  Cc1ccc(S(=O)(=O)N2CCc3nc(NC(=O)c4cccc(F)c4)ncc3C2)cc1 [Example 143]     53%

* * *

Biological target: 5-HT transporter (Rattus norvegicus, UniProt P31652)
Construct: from tissue; host or cells: rat medulla and pons synaptosomes (P2 fraction)
Sequence (P31652 whole entry): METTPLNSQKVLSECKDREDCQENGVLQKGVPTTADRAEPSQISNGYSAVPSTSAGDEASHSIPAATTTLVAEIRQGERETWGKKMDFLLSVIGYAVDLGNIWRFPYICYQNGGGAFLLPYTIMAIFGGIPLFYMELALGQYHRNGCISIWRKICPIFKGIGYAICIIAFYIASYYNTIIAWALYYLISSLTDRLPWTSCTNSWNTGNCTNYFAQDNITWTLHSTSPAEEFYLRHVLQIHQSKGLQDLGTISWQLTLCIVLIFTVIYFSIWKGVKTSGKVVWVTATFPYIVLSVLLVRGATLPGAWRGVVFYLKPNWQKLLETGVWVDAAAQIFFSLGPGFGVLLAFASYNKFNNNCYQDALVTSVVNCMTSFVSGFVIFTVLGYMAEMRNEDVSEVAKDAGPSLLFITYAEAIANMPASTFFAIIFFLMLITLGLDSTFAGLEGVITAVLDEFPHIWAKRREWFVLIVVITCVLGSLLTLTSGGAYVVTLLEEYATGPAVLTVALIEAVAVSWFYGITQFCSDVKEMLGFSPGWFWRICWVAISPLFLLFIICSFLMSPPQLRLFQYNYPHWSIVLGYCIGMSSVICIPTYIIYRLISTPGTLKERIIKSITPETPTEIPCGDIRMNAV
Assay: 5-HT uptake inhibition in rat brain synaptosomes (medulla and pons)
Format: biochemical
Method: I. Method for Determining Noradrenalin and 5-HT Uptake Inhibition: […] The particular uptake is measured in a 96-well microtitre plate. […] The 96 samples are then filtered through a Unifilter GF/B microtitre plate (Packard) and washed with 200 mL of incubated buffer using a “Brabdel MPXRI-96T Cell-Harvester”. […] After sealing with a top seal (Packard) and establishing an equilibrium (around 5 hours), radioactivity is determined in a “Trilux 1450 Microbeta” (Wallac). […]
PARAMETER: inhibition at 1 µM (%)

> print(dat)
                                   compound  recorded.number
1  CC(C)(C)OC(=O)NCCC(=O)NC1CCc2nc(NC(=O)c3cccs3)ncc2C1 (stereo not shown) [Example 149]               32
2  CCCC(=O)Nc1ncc2c(n1)CCC(NS(=O)(=O)c1ccc(C(C)(C)CC)cc1)C2 (stereo not shown) [Example 167]               32
3  Cc1cc(C)c(S(=O)(=O)N2CCc3nc(NC(=O)c4ccc(Cl)c(Cl)c4)ncc3C2)c(C)c1 [Example 95]               59
4  Cc1ccc(C(=O)Nc2ncc3c(n2)CCN(C(=O)c2ccc(SC(F)(F)F)cc2)C3)cc1 [Example 148]               32

* * *

Listing of entries alongside the reported inhibition at 10 µM.
biological target: NA transporter (Rattus norvegicus); construct: from tissue; host or cells: rat hypothalamus synaptosomes (P2 fraction); assay: Noradrenalin uptake inhibition in rat brain synaptosomes (hypothalamus); format: biochemical
PARAMETER: inhibition at 10 µM (%)

> print(dat)
                                    molecule            parameter  recorded.number
 1  O=C(Nc1ncc2c(n1)CCN(C(=O)c1ccc(-c3cccs3)cc1)C2)c1cc(Cl)cc(Cl)c1  inhibition at 10 µM               67
 2  CC(C)(C)c1ccc(C(=O)Nc2ncc3c(n2)CCN(C(=O)c2csc4ccccc24)C3)cc1  inhibition at 10 µM               69
 3  COc1ccc(S(=O)(=O)N2CCc3nc(NC(=O)c4ccc(F)cc4)ncc3C2)cc1  inhibition at 10 µM               36
 4  Cc1ccc(C(=O)Nc2ncc3c(n2)CCN(C(=O)COc2cccc(Cl)c2)C3)cc1  inhibition at 10 µM               53
 5  CCOC(=O)CC(=O)N1CCc2nc(NC(=O)c3cccc(Cl)c3)ncc2C1  inhibition at 10 µM               65
 6  O=C(Nc1ncc2c(n1)CCN(C(=O)c1sc3ccccc3c1Cl)C2)c1ccccc1  inhibition at 10 µM               78
 7  O=C(Nc1ncc2c(n1)CCN(C(=O)Cc1c(Cl)cccc1Cl)C2)c1cccc(Cl)c1  inhibition at 10 µM              100
 8  COc1ccccc1C(=O)Nc1ncc2c(n1)CCN(S(=O)(=O)c1c(C)cc(OC)c(C)c1C)C2  inhibition at 10 µM               36
 9  Cc1cc(C(=O)NC2CCc3nc(NC(=O)c4cccs4)ncc3C2)ccc1Br (centres unmarked)  inhibition at 10 µM               49
10  CC(C)(C)c1ccc(C(=O)Nc2ncc3c(n2)CCN(S(=O)(=O)c2ccc4c(c2)OCCO4)C3)cc1  inhibition at 10 µM               82
11  CCc1ccc(C(=O)Nc2ncc3c(n2)CCN(S(=O)(=O)c2ccccc2Cl)C3)cc1  inhibition at 10 µM               73
12  O=C(Nc1ncc2c(n1)CCN(C(=O)c1cccc(F)c1)C2)c1cccc2ccccc12  inhibition at 10 µM               63
13  Cc1ccc(C(=O)N2CCc3nc(NC(=O)c4ccc(C(C)(C)C)cc4)ncc3C2)cc1[N+](=O)[O-]  inhibition at 10 µM               35
14  O=C(Nc1ncc2c(n1)CCN(S(=O)(=O)c1cccs1)C2)c1ccc(F)c(F)c1  inhibition at 10 µM               41
15  COc1ccccc1C(=O)Nc1ncc2c(n1)CCN(C(=O)COCc1ccccc1)C2  inhibition at 10 µM               31
16  CCCCC(C)CCC(=O)N1CCc2nc(NC(=O)c3cccc4ccccc34)ncc2C1 (centres unmarked)  inhibition at 10 µM               43
17  COc1ccc(C(=O)N2CCc3nc(NC(=O)c4cccc(Cl)c4)ncc3C2)cc1OC  inhibition at 10 µM               72
18  CCc1ccc(C(=O)Nc2ncc3c(n2)CCN(S(=O)(=O)c2ccc(OC)cc2)C3)cc1  inhibition at 10 µM               85
19  O=C(Nc1ncc2c(n1)CCN(C(=O)c1ccc(OC(F)(F)F)cc1)C2)c1cc(Cl)cc(Cl)c1  inhibition at 10 µM               73
20  COc1cccc(C(=O)Nc2ncc3c(n2)CCN(C(=O)c2cccc(F)c2F)C3)c1  inhibition at 10 µM               54
21  Cc1cc(C)c(S(=O)(=O)N2CCc3nc(NC(=O)c4ccc(Cl)c(Cl)c4)ncc3C2)c(C)c1  inhibition at 10 µM               72
22  CCc1ccc(C(=O)Nc2ncc3c(n2)CCN(C(=O)c2ccc(Cl)c(Cl)c2)C3)cc1  inhibition at 10 µM               84
23  CC(C(=O)N1CCc2nc(NC(=O)c3ccccc3)ncc2C1)c1ccc(Cl)cc1 (centres unmarked)  inhibition at 10 µM               38
24  O=C(Nc1ncc2c(n1)CCN(S(=O)(=O)c1ccc(OC(F)(F)F)cc1)C2)c1ccc(Cl)c(Cl)c1  inhibition at 10 µM               59
25  O=C(Nc1ncc2c(n1)CCN(S(=O)(=O)c1ccc(Cl)s1)C2)c1cccc2ccccc12  inhibition at 10 µM               31
26  Cc1ccccc1C(=O)N1CCc2nc(NC(=O)c3cccc(Cl)c3)ncc2C1  inhibition at 10 µM               92
27  CCc1ccc(C(=O)Nc2ncc3c(n2)CCN(S(=O)(=O)c2ccsc2)C3)cc1  inhibition at 10 µM               92
28  O=C(Nc1ncc2c(n1)CCN(S(=O)(=O)c1ccc(Cl)cc1)C2)c1ccc(Cl)c(Cl)c1  inhibition at 10 µM               74
29  O=C(Nc1ncc2c(n1)CCN(C(=O)C1=Cc3ccccc3OC1)C2)c1ccc(F)c(F)c1  inhibition at 10 µM               46
30  CC(C)(C)c1ccc(C(=O)Nc2ncc3c(n2)CCN(S(=O)(=O)c2ccc([N+](=O)[O-])cc2)C3)cc1  inhibition at 10 µM               77
31  Cc1cc(C)c(C)c(S(=O)(=O)N2CCc3nc(NC(=O)c4cccs4)ncc3C2)c1C  inhibition at 10 µM               56
32  COc1ccccc1C(=O)Nc1ncc2c(n1)CCN(S(=O)(=O)c1ccc(Cl)s1)C2  inhibition at 10 µM               32

* * *

Listing of entries alongside the reported inhibition at 10 µM.
biological target: mGluR5 receptor (Sus scrofa, UniProt I3LUI7); construct: 450 μg of protein from brain homogenate is incubated; from tissue; host or cells: pig brain hemispheres without medulla, cerebellum and pons; experiment: Affinity for the mGluR5 receptor ([3H]-MPEP binding, pig brain homogenate); details: 10 μM compound, 15 nM [3H]-MPEP
Sequence (I3LUI7 19-1212): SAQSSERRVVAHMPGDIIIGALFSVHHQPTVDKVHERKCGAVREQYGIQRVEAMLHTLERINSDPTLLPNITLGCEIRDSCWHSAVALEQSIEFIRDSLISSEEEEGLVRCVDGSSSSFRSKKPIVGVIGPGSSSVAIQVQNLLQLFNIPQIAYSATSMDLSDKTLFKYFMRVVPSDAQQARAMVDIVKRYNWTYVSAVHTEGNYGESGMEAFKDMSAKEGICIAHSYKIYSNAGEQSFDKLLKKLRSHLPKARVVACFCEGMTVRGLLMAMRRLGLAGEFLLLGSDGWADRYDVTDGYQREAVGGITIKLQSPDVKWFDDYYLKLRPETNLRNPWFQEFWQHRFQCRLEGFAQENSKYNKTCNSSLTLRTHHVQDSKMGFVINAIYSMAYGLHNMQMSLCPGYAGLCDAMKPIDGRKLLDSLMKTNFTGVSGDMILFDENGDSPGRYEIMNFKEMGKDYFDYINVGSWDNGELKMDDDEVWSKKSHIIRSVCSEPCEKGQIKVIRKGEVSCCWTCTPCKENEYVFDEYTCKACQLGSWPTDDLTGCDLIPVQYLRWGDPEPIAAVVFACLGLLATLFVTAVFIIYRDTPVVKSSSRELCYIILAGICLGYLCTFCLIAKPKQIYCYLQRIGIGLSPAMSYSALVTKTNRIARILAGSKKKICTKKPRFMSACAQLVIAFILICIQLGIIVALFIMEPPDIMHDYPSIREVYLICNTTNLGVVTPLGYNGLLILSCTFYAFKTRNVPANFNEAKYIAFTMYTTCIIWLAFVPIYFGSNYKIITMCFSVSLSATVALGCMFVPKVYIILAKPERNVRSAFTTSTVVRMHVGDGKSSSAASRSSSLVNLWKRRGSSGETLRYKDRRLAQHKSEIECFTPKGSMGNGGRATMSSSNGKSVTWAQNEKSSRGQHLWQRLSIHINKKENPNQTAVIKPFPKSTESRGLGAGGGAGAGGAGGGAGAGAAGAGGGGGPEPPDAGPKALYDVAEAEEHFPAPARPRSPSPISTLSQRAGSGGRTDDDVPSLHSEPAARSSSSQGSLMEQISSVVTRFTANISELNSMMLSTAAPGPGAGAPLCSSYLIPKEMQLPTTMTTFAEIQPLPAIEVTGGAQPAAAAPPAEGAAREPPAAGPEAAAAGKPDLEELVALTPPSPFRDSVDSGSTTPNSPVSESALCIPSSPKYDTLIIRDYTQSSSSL
PARAMETER: inhibition at 10 µM (%)

> print(dat)
                                   compound            parameter  recorded.number
1  CCCC(=O)Nc1ncc2c(n1)CCC(NC(=O)C=Cc1cccc(C(F)(F)F)c1)C2 (centres unmarked)  inhibition at 10 µM             33.5
2  CC(C)C(NC(=O)OCC1c2ccccc2-c2ccccc21)C(=O)NC1CCc2nc(NC(=O)c3cccs3)ncc2C1 (centres unmarked)  inhibition at 10 µM               31
3  O=C(Cc1cccc2ccccc12)NC1CCc2nc(NC(=O)c3cccs3)ncc2C1 (centres unmarked)  inhibition at 10 µM               42
4  COc1cccc(C(=O)Nc2ncc3c(n2)CCN(S(=O)(=O)c2cc(Br)ccc2OC)C3)c1  inhibition at 10 µM             51.1
5  CC(C)(C)OC(=O)N1CCC(C(=O)NC2CCc3nc(NC(=O)c4ccc(F)cc4)ncc3C2)CC1 (centres unmarked)  inhibition at 10 µM             45.6
6  Cc1nc(C(F)(F)F)ccc1C(=O)NC1CCc2nc(NC(=O)c3ccc(F)cc3)ncc2C1 (centres unmarked)  inhibition at 10 µM             32.1
7  O=C(Nc1ncc2c(n1)CCC(NS(=O)(=O)c1ccc(Cl)s1)C2)c1ccc(F)cc1 (centres unmarked)  inhibition at 10 µM             33.1
8  Cc1ccc(S(=O)(=O)N2CCc3nc(NC(=O)c4cccc(F)c4)ncc3C2)cc1  inhibition at 10 µM             37.2
